Ref: the supplement of paper PMC13380429

Each entry below lists one item and its recorded cell viability value.
Tested on: HepG2
Test: cell viability relative to DMSO; higher = less toxic
Conditions: 72 h; 10000 nM
The figure you give is taken to be in %; do not add the unit.

As a guide, the following entries are already answered.
[[record]]
molecule_smiles = "CS(=O)(=O)Nc1ccc2oc3c(OC(F)F)ccc(C(=O)Nc4c(Cl)cncc4Cl)c3c2c1"
outcome_measure = "cell viability"
readout_unit = "%"
measured_result = 89.8

[[record]]
molecule_smiles = "C=C(C)[C@@H]1CC[C@]2(CO)CC[C@]3(C)[C@H](CC[C@@H]4[C@@]5(C)CC[C@H](O)C(C)(C)[C@@H]5CC[C@]43C)[C@@H]12"
outcome_measure = "cell viability"
readout_unit = "%"
measured_result = 89.8


Here is another compound to look at.
Notebook entry, HepG2 assay: cell viability of `CC(=O)Oc1ccccc1C(=O)Oc1ccccc1C(=O)O` = ?
92.4
